assayComment: Electrical activity assay on cell lines treated with a given drug. DMSO was used as a vehicle and a control, unblinded dofetilide was used as a control.
Assay type: cell-based
Design: unit not given here
runParameters: human, ipsc-cm, 0.01 µM; concentration (um) 0.01 uM
Decision: APDc compared against 60; not below it gives fulfilled, below it gives not fulfilled.

{"columns": ["compound", "discreteLabel"],
 "data": [
  ["CC(C)COCC(CN(Cc1ccccc1)c1ccccc1)N1CCCC1 (stereo not given) [BEPRIDIL]", "not fulfilled"],
  ["COc1ccc(CCN2CCC(Nc3nc4ccccc4n3Cc3ccc(F)cc3)CC2)cc1 [ASTEMIZOLE]", "not fulfilled"]
]}

In: Assess whether reported APDc for CN1CCN(CCCCN2C(=O)CN(/N=C/c3ccc(-c4ccc(Cl)cc4)o3)C2=O)CC1 [AZIMILIDE] sits at 60 or higher.
Out: not fulfilled

In: Assess whether reported APDc for COc1ccc([C@@H]2Sc3ccccc3N(CCN(C)C)C(=O)[C@@H]2OC(C)=O)cc1 [DILTIAZEM] sits at 60 or higher.
Out: not fulfilled

In: Assess whether reported APDc for CCCCCCCN(CC)CCCC(O)c1ccc(NS(C)(=O)=O)cc1 (stereo not given) [IBUTILIDE] sits at 60 or higher.
Out: fulfilled

====

Measured FPDc accompanies every entry in the list below.
assayComment: Electrical activity assay on cell lines treated with a given drug. DMSO was used as a vehicle and a control, unblinded dofetilide was used as a control.
Format: ADME, cell-based
Design: unit not given here
runParameters: human, ipsc-cm, 10 µM; concentration (um) 10 uM
No unit in the answer, please; the number alone is enough.

FPDc measured on CC[C@H]1OC(=O)[C@H](C)[C@@H](O[C@H]2C[C@@](C)(OC)[C@@H](O)[C@H](C)O2)[C@H](C)[C@@H](O[C@@H]2O[C@H](C)C[C@H](N(C)C)[C@H]2O)[C@](C)(OC)C[C@@H](C)C(=O)[C@H](C)[C@@H](O)[C@]1(C)O [CLARITHROMYCIN] = 0.04288

FPDc measured on CN1CCN(CCCCN2C(=O)CN(/N=C/c3ccc(-c4ccc(Cl)cc4)o3)C2=O)CC1 [AZIMILIDE] = 0.06031

====

assayComment: Electrical activity assay on cell lines treated with a given drug. DMSO was used as a vehicle and a control, unblinded dofetilide was used as a control.
Assay type: ADME, cell-based
runParameters: human, ipsc-cm, 0.1 µM; concentration (um) 0.1 uM
Measured FPDc accompanies every entry in the list below.
No unit in the answer, please; the number alone is enough.

{"columns": ["compound", "recordedNumber"],
 "data": [
  ["COc1cc2c(Nc3ccc(Br)cc3F)ncnc2cc1OCC1CCN(C)CC1 [VANDETANIB]", 20.73],
  ["CC(C)(C)c1ccc(C(O)CCCN2CCC(C(O)(c3ccccc3)c3ccccc3)CC2)cc1 (stereo unspecified) [TERFENADINE]", 20.37],
  ["CC(C)N(CCC(C(N)=O)(c1ccccc1)c1ccccn1)C(C)C (stereo unspecified) [DISOPYRAMIDE]", 23.29],
  ["CC(C)NCC(O)c1ccc(NS(C)(=O)=O)cc1 (stereo unspecified) [SOTALOL]", 22.36]
]}

Consider the additional compound presented here.
FPDc measured on COc1ccccc1OCC(O)CN1CCN(CC(=O)Nc2c(C)cccc2C)CC1 (stereo unspecified) [RANOLAZINE] = 23.9
